# Measured Target: SCRIB_1, Q14160
# Sequence (Q14160 718-814): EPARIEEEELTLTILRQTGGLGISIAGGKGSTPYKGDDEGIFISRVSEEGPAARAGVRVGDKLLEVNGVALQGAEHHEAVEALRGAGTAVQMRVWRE
# Experiment Notes: holdup assay
# Set-up: key: below the threshold = too weak to quantify, mostly under pKd 3.1 to 4
# Condition Label: plain residues with an end cap or a label only (N-terminal biotin on a linker: ado-ado)
Value Type: pKd

// known answers, use as guide
1. EFKQTSSFLV [JAM1, Q9Y624]: below the threshold
2. NISARRFTLC [FAM167B, Q9BTA0]: below the threshold
3. DFKHTKSFII [JAM2, P57087]: below the threshold
4. PALKNGQYWV [CSPG4, Q6UVK1]: below the threshold
5. YAEKRMLTEV [KCNA6, P17658]: 3.63

Exam item: Read off the recorded pKd for LPPPESESKV [KCNJ9, Q92806]
Marked response: below the threshold

Exam item: Read off the recorded pKd for PEKVSNTTVV [IGSF5, Q9NSI5]
Marked response: 3.56

Exam item: Read off the recorded pKd for QLKSGRDSTV [TMEM178A, Q8NBL3]
Marked response: 3.56

Exam item: Read off the recorded pKd for RGKNRRQSIF [CDK18, Q07002]
Marked response: below the threshold
